Sourced from PubChem BioAssay (NCI)

Each entry below lists one item and its recorded growth value.
- System: SK-MEL-2 melanoma
- assay_notes: NCI-60 one-dose screen, 48 h (100 = growth as untreated, 0 = no growth, -100 = all killed)
- particulars: 10 µM unless noted
About 83,000 compounds went through this panel and 20% of them were active in at least one assay; those are over-represented in the sample as a whole.

{"compound": "O=S(=O)(F)c1cccc(Cl)c1C[P+](c1ccccc1)(c1ccccc1)c1ccccc1", "growth / %": 97.1}
{"compound": "C[C@]12CC[C@@H](OC(=O)N(CCCl)N=O)C[C@@H]1CC[C@@H]1[C@@H]2CC[C@]2(C)C(=O)CC[C@@H]12", "growth / %": 37.8}
{"compound": "CCCn1cc2c3c(cccc31)[C@H]1C[C@@H](C)CN(C)[C@@H]1C2", "growth / %": 134}
{"compound": "COc1ccc2c(c1)c(-c1nc(-c3cn(C)c4ncccc34)cs1)cn2CCCCN1CCOCC1", "growth / %": 64.4}
{"compound": "CN1C2CCC1[C@@H](COC(=O)c1ccccc1)[C@@H](O)C2 (stereo partly specified)", "growth / %": 104}
{"compound": "O=[P+](O)c1cccnc1", "growth / %": 106}
{"compound": "CO[C@@H]([CH2][Hg][O]C(=O)c1ccccc1)[C@@H]([CH2][Hg][O]C(=O)c1ccccc1)OC", "growth / %": 105}
{"compound": "O=c1[nH]c(=O)[nH]c(=O)[nH]1", "growth / %": 66.7}
{"compound": "CSc1cc(/C=C(\\C)[C@@H]2C[C@@H]3O[C@]3(C)CCC[C@H](C)[C@H](O)[C@@H](C)C(=O)C(C)(C)[C@@H](O)CC(=O)O2)n(CCNC(=O)OC(C)(C)C)n1", "growth / %": 75.6}
{"compound": "CCC1(NC(=O)c2cc(F)c(F)c(F)c2F)C(=O)NC(=O)N(C(C)C)C1=O (stereo unspecified)", "growth / %": 68.4}
{"compound": "CC1(C)N=C(N)N=C(N)N1c1ccc(CCC(=O)Nc2ccc(S(=O)(=O)F)cc2)cc1", "growth / %": 50.4}
{"compound": "O=NN1CCCCC1", "growth / %": 105}
{"compound": "C[Se]/C=C1/C(=O)N(c2c(Cl)cccc2Cl)c2ccccc21", "growth / %": 51.1}
{"compound": "C=C1C(=O)OC2CC3(C)OC3C3OC3C3=CC(OC3=O)C12 (stereo unspecified)", "growth / %": 100}
{"compound": "O=C/C=C/c1ccco1", "growth / %": 108}
{"compound": "COc1cc(-c2ccc(N)c(OC)c2)ccc1N", "growth / %": 118}
